System: IL-23 signaling (STAT3 phosphorylation) in Kit225 cells
Assay: IL23 pSTAT3 AlphaLISA Assay
Type: cell-based
Conditions: 1 hour preincubation, IL23 25 ng/mL for 30 minutes, GeoMetric mean (SEM, n), read-out: relative IC50
readoutLabel: pIC50
Reminder that pIC50 means the negative base-10 logarithm of the concentration expressed in mol/L.

Lab request: please report pIC50 under test system IL-23 signaling (STAT3 phosphorylation) in Kit225 cells for CNc1cc(Nc2cccc(C)n2)nc2c(C(=O)N[C@@H]3CCN(C)C3=O)cnn12
7.18

Kindly state the measured pIC50 obtained for CNc1cc(Nc2cccc3c2OCCC3)nc2c(C(=O)N[C@@H]3CCN(C)C3=O)cnn12 with IL-23 signaling (STAT3 phosphorylation) in Kit225 cells.
8.15

* * *

Biological target: pseudokinase domain (JH2) of human TYK2 (Homo sapiens)
Construct: The pseudokinase domain (JH2) of human JAK
Sequence (P29597 589-875 limits assumed): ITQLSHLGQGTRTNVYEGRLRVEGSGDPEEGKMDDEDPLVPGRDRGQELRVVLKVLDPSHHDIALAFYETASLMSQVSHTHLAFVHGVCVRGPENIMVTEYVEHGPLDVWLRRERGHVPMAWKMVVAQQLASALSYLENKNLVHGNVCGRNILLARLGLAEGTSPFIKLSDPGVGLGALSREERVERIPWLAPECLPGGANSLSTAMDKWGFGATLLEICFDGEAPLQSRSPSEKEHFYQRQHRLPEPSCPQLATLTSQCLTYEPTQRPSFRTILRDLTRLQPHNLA
Experiment: TYK2-JH2 Tracer Binding Assay
Conditions: His-tagged TYK2-JH2 0.200 nM, Tracer 2.00 nM, TR-FRET, 30 minutes at room temperature
readoutLabel: IC50

// IC50 lookup, key: CNc1cc(Nc2cccc(C)n2)nc2c(C(=O)N[C@@H]3CCN(C)C3=O)cnn12 [Example 2]
< 0.254 nM

Quick check: IC50 of CNc1cc(Nc2cccc3c2OCCC3)nc2c(C(=O)N[C@@H]3CCN(C)C3=O)cnn12 [Example 1] ?
< 0.254 nM
